B1: Osa-1-4 twister ribozyme (parent)
chain: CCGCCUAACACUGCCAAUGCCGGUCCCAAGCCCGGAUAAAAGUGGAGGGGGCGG

Variants of: B1
Experiment: self-cleavage, relative activity (ratio to wild type); higher = more cleavage; co-transcriptional
What self-cleavage was measured for each of the following?
Number only, please.

self-cleavage lookup needed for A7U G22U , thanks.
0.06

Look up self-cleavage for this variant: A40U C33G
0.06

State the recorded self-cleavage for this entry: A39C G47C
0.06
